Origin of the recorded values: patent US12448382B2

For each entry below, report its log10(IC50) value.
- experimental target: human recombinant TYK2 protein (Homo sapiens)
- Construct: purchased Carna Biosciences 08-147
- Sequence (P29597 871-1187 limits assumed): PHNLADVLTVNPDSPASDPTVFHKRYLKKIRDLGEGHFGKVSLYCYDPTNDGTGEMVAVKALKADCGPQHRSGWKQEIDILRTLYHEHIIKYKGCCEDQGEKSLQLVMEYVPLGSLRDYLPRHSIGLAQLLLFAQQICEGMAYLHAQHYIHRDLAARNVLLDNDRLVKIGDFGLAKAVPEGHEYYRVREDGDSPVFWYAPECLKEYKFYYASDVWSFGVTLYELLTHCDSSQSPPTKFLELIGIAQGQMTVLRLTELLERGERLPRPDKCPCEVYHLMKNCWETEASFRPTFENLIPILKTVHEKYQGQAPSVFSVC
- experiment notes: TYK2 Inhibition Assay (HTRF kinase assay)
- Assay type: biochemical
- experimental parameters: human recombinant TYK2, 11.25 μM ATP substrate solution
Values below are the log10 of the recorded IC50, with nM as the unit.

Below are worked cases with known answers.
Cn1cc(Nc2ncc(Cl)c(N3C[C@]4(C)CN(Cc5ccn(C)n5)C[C@]4(C)C3)n2)cn1	1.99
Cc1cnc(Nc2cnn(C)c2)nc1N1C[C@@]2(C)CN(S(C)(=O)=O)C[C@@]2(C)C1	0.23
Cc1nnc(N2C[C@@]3(C)CN(c4nc(Nc5cnn(C)c5)ncc4Cl)C[C@@]3(C)C2)o1	0.87
C[C@]12CN(C(=O)CC#N)C[C@H]1CN(c1nc(Nc3cn[nH]c3)ncc1Cl)C2	-1.00
Cn1cc(Nc2ncc(Cl)c(N3C[C@@H]4CN(S(C)(=O)=O)C[C@]4(C)C3)n2)cn1 (racemic)	0.20
Cn1cc(Nc2ncc(Cl)c(N3C[C@H]4CN(C(=O)C5CC5)C[C@@]4(C)C3)n2)cn1	0.78

Here's the next entry for you.
// log10(IC50) lookup, key: Cn1cc(Nc2ncc(Cl)c(N3C[C@]4(C)CN(C(=O)C(C)(C)O)C[C@]4(C)C3)n2)cn1
0.93
